Tested on: MCF7
Assay: Antiproliferative activity against human ER-negative MCF7 cells after 24 hrs by MTT assay
Format: functional, cell-based
Conditions: Homo sapiens, MCF7, 24 h
pEC50: −log10 of the molar value.
Outcome: True for pEC50 of at least 5; False for anything lower.

Is the recorded value of pEC50 equal to or greater than 5 for this compound? COc1ccc(/C(=N\OCCN2CCCC2)c2cccc3ccccc23)cc1
False

What do you get for COc1ccc(/C(=N\OCCN(C)C)c2cccc3ccccc23)cc1 ?
False

Lookup CSc1ccc(/C(=N\OCCN(C)C)c2cccc3ccccc23)cc1
False

Quick one: CSc1ccc(/C(=N\OCCCN2CCCCC2)c2cccc3ccccc23)cc1
True

What do we get for CSc1ccc(/C(=N\OCCN2CCOCC2)c2cccc3ccccc23)cc1 ?
False

Then CSc1ccc(/C(=N\OC(C)CN(C)C)c2cccc3ccccc23)cc1 (stereo unspecified) ?
False

Try COc1ccc(/C(=N\OCCN2CCOCC2)c2cccc3ccccc23)cc1 next.
False

Try this compound too: CCOC(=O)CO/N=C(\c1ccc(SC)cc1)c1cccc2ccccc12
False

Now the same for CSc1ccc(/C(=N\OCCCN2CCC(C)CC2)c2cccc3ccccc23)cc1
True

----------
Kindly supply the reported selectivity ratio values for the records listed here.
Experiment: Safety index, ratio of IC50 for human MCF10A cells to EC50 for human HCT116 cells
Type: toxicity, cell-based, MCF-10A
Details: MCF10A cells versus HCT116 cells, read-out: Ratio IC50/EC50
Just the number, please, no unit attached.

Could you tell me which selectivity ratio is on file for CCN(CC)CCO/N=C(\c1ccc(SC)cc1)c1cccc2ccccc12.O=C(O)C(=O)O ?
2.5

Try O=c1[nH]cc(F)c(=O)[nH]1 next.
0.97

----------
Test system: SW-620
Experiment: Antiproliferative activity against human SW620 cells after 24 hrs by MTT assay
Format: functional, cell-based
Conditions: SW-620, 24 h
Assay endpoint: pEC50
In plain terms, pEC50 is the concentration in mol/L turned into minus its base-10 logarithm.

Given the entry CCN(CC)CCO/N=C(\c1ccc(SC)cc1)c1cccc2ccccc12.O=C(O)C(=O)O , report its measured pEC50.
5.06

----------
Test: Antiproliferative activity against human HCT116 cells after 24 hrs by MTT assay
Format: functional, cell-based
Settings: HCT-116, 24 h
Assay endpoint: pEC50
pEC50 here is simply -log10 of the concentration when that concentration is written in mol/L.

pEC50 for CCN(CC)CCO/N=C(\c1ccc(SC)cc1)c1cccc2ccccc12.O=C(O)C(=O)O ?
5.11

----------
Tested on: Ishikawa
Test: Antiproliferative activity against human ER-positive Ishikawa cells after 24 hrs by MTT assay
Type: functional, cell-based
Conditions: ishikawa
Assay endpoint: pEC50
By convention, pEC50 is the negative base-10 log of a molar concentration.

Query (compound): CCN(CC)CCO/N=C(\c1ccc(SC)cc1)c1cccc2ccccc12.O=C(O)C(=O)O ; field requested: pEC50
4.92

----------
Experiment: Antiproliferative activity against mouse NIH/3T3 cells after 24 hrs by MTT assay
Format: functional, cell-based
Conditions: NIH3T3, 24 h
pIC50: −log10 of the molar value.
Assay endpoint: pIC50

Given the compound CCN(CC)CCO/N=C(\c1ccc(SC)cc1)c1cccc2ccccc12.O=C(O)C(=O)O , what is its reported pIC50?
< 4.70

Source listed as ChEMBL document CHEMBL3352791.
